experiment: yeast display, Sf9 membrane polyspecificity reagent, FACS + sequencing; frameworks hold sequencing errors
Measurement type: polyreactivity (PSR sort gate)

Answered examples (4):
QVQLVESGGGLVQAGGSLRLSCADSGSIFGPYAMGWYRQAPGKEREFVAAISRSGTRTNYADSVKGRFTISRDNAKNTVYLQMNSLKPEDTAVYYCNARYVSASRNRGKSRYDYWGLGTQVTVSS | high polyreactivity
KVQLVESGVGLVQAGGSLRLSCAPSGSIFKYYAMGWYRQAPGKERELVAAITDRGSSTYYADSVKGRFTISRDNAKTTVYLQMNSLKPEDTAVYYCAAETYVCIYWPYVKYYYWGQGTQVNVSS | high polyreactivity
QVQLVESGGGLLQAGGSLRLSCAASGSTFPSYAMGWYRQAPGKERELVAAINSGGGTNYADSVKGRFTISRDNAKNNVYLQMNSLKPEDTAVYYCAKSRYDYTKTDGGYWGQGTQVTVSS | low polyreactivity
QVQLVESGGGLVQAGGSIRSSCAASGRTFGSNAMGWSRQAPGKERELVAAISSTVSTNYADSVKGRFTISRDNAKNTVYLQMNSLKPEDTAVYYCNVTRHYSYVSEYDYWGQGTQVTVSS | low polyreactivity

Next:
For this sequence ( HDQLVESGGGLVQAGGSLRLTCAASGFIFGAYTMGWYRQAPGKERELVAAISWSGDSTYYADSVKGRFTISRDNAKNTVYLQMNSLKPEDTAVYYCAAVWYWSGFDYWGQGTQVTVSS ), measured polyreactivity (PSR sort gate) is high polyreactivity

---

experiment: yeast display, Sf9 membrane polyspecificity reagent, FACS + sequencing; frameworks hold sequencing errors
Measurement type: polyreactivity (PSR sort gate)

Answered examples (8):
QVHHVESGGGLVQAGGSLRLSCAASGGTFRVYTMGWYRQAPAKVRELVAAITRNGGSTYYADSVKGRFTISRDNAKNSVYVQMNSLKPDDTAVYYCAARGGVPYSHAYDYWGQGTQVTVSS | low polyreactivity
QVHLVESGGGLVQAGGSLRLSCASTGIIFLRNAMGWYRQAHGKERELVAAISYRGGSTYYADSVKGRFTISRDNANNTVYLQMNSLKPEDTAVYYCNDLYTSLYDYWGQGTQVTVSS | high polyreactivity
QVQLVESGGGLVQAGGILRLSCAASGIIFYYYAMGWYRQAPGKEMELVAGIRARGGITYYADSVKGRFTISRDNAKNTVYLLMNSLKPVDTAVYYCAKSTRPVSGVPDGPLYEYWGQGTQVTVSS | low polyreactivity
QVQIVESGGGLVQAGGILRLSCASSRSIFTVNTMGWYRQEHGKETELVAAINSRGGTTYYADSVKGRFTISRDNAKNTVYLQMISLKPEDTAFYYCAARTRIGLLYDYWGQGTQVTVSS | high polyreactivity
QVQLVESGGGLVQAGGSLRLSCAASGRTFGYNAMGWYRQAPGKERELVATITSSDSTYYADSVKGRFTISRDNAKNTVYLQMNSLKPEDTAVYYCAADDVGWGYYVYSYPYDYWGQGTQVTVSS | low polyreactivity
QVQLVESGGGLVQAGGSLRLSCAASGRTFWYYAMGWYRQAPGKERELVAAITSGGSTNYADSVKGRFTISRDNAKNTVYLQMNSLKPEDTAVYYCAVDGLGGREGYWGQGTQVTVSS | high polyreactivity
QVQLVESGGGLVQAGGSLRLSCTASGRTLYNYTMGWYRQAPGKERELVATINFSGGSTYYADSVKGRFTISRDNAKNTVYLQMNSLKPEDTAVYYCNARGYHYAYKGAYLGDYYWGQGTQVTVSS | low polyreactivity
QVHLVESGGGIVQAGGSLRLSCAASVRTFQYYAMGWYRKAPGKEREFVAAITRTGARTYYADSVKGRFTISRDNAKNTVYLQMNSLKPEDTAVYYCAKSLTFYSWRDYGYWGQGTQVTVSS | high polyreactivity

Next:
For this sequence ( QVQLVESGGGLVQAGGSHRLSCAASGFTFTHYPMGWYRQAPGKERELVAAISTSGGSTYYADSVKGRFTISRDNAKNSVYLQMNSLKPEDTAVYYCAARRDGWVQWGYYYWGQGTQVTVSS ), measured polyreactivity (PSR sort gate) is low polyreactivity
